# Tested on: HSSY-II complex spheroid growth, percent test/control
# Assay Summary: Anticancer human tumor HSSY-II cell line growth inhibition [Asc];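 further: spheroids exposed to drug for 7 days before reading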
# Experimental Parameters: second compound 0.0316 µM; first compound 0.00316 µM; active compounds read low
Metric: viability, T/C (%)
Write down the numeric answer in % and omit the unit.

Record COc1c(OCCCN2CCOCC2)ccc2c3n(c(=NC(=O)c4cnc(N)nc4)nc12)CCN3 + CNC(C)C(=O)NC1CN(S(=O)(=O)c2cccc(S(=O)(=O)N3CCC4CCC(C(=O)NC(c5ccccc5)c5ccccc5)N4C(=O)C(NC(=O)C(C)NC)C3)c2)CCC2CCC(C(=O)NC(c3ccccc3)c3ccccc3)N2C1=O , field viability, T/C: 82

The value of viability, T/C measured for the compound Cn1ncnc1[C@H]1c2n[nH]c(=O)c3cc(F)cc(c23)N[C@@H]1c1ccc(F)cc1 + CNC(C)C(=O)NC1CN(S(=O)(=O)c2cccc(S(=O)(=O)N3CCC4CCC(C(=O)NC(c5ccccc5)c5ccccc5)N4C(=O)C(NC(=O)C(C)NC)C3)c2)CCC2CCC(C(=O)NC(c3ccccc3)c3ccccc3)N2C1=O turned out to be 80.8

Value of viability, T/C reported for the compound CCN1CCN(Cc2ccc(Nc3ncc(F)c(-c4cc(F)c5nc(C)n(C(C)C)c5c4)n3)nc2)CC1 + CNC(C)C(=O)NC1CN(S(=O)(=O)c2cccc(S(=O)(=O)N3CCC4CCC(C(=O)NC(c5ccccc5)c5ccccc5)N4C(=O)C(NC(=O)C(C)NC)C3)c2)CCC2CCC(C(=O)NC(c3ccccc3)c3ccccc3)N2C1=O is 78.1

The measurements presented in this section are drawn from PubChem BioAssay AID1963444.
